assayed.system: HIV-1 IN (Human immunodeficiency virus type 1 group M subtype B, UniProt P12497)
test.method.notes: HIV-1 IN strand transfer (ST) gel-based catalytic assay
Format: biochemical
Parameters: made in house
setup.conditions: Strand Transfer IC50, 32P-end labeled oligonucleotides in solution, gel-based separation
pIC50: −log10 of the molar value.
Cut-off 5 on pIC50, inclusive. At or above means met; below means not met.

compound: CNC(=O)c1cccc(C(=O)NCc2ccc(F)cc2)c1O
label.class: not met
--
compound: O=C(NCc1ccc(F)cc1)c1cccc(O)c1O
label.class: not met
--
compound: O=C(NCc1ccc(F)cc1)c1cccc(=O)n1O
label.class: not met
--
compound: O=C(NCc1ccc(F)cc1)c1cccc(C(=O)NCc2ccc(F)cc2)c1O
label.class: not met
--
compound: O=C(NCc1ccc(F)cc1)c1ccccc1O [RCD-15, N-(4-Fluorobenzyl)-2-hydroxybenzamide]
label.class: not met
--
compound: O=C(NCc1ccc(F)cc1)c1cccc(C(=O)NCc2ccc(F)cc2)[n+]1[O-]
label.class: not met
--
compound: Cn1ccc(=O)c(O)c1C(=O)NCc1ccc(F)cc1
label.class: not met
--
compound: COc1cccc(C(=O)NCc2ccc(F)cc2)c1O
label.class: not met

Request: # bool: pIC50 of Cc1cc(=O)c(O)c(C(=O)NCc2ccc(F)cc2)n1C >= 5
Result: not met

Request: Evaluate O=C(NCc1ccc(F)cc1)c1ccc2ccc[n+]([O-])c2c1O : pIC50 at minimum 5?
Result: met

====

assayed.system: HIV-1 IN (Human immunodeficiency virus type 1 group M subtype B)
test.method.notes: HIV-1 IN 3′-processing (3P) gel-based catalytic assay
Assay type: biochemical
Parameters: made in house
setup.conditions: read-out: 3'-Processing IC50
measured.attribute: IC50

Some solved entries appear below for comparison.
molecule: O=C(NCc1ccc(F)cc1)c1cccc(=O)n1O [RCD-7]
IC50: > 100 µM
//
molecule: O=C(NCc1ccc(F)cc1)c1ccc2cccc(O)c2n1 [RCD-13]
IC50: > 100 µM

Proceed to the following item.
Request: Entry O=C(NCc1ccc(F)cc1)c1occc(=O)c1O [RCD-4] has what IC50?
Result: > 100 µM

====

Tested on: HIV
test.method.notes: microbe, parasite or virus in culture
Format: cell-based
setup.conditions: Human immunodeficiency virus 1, P4/R5, P4R5 cells; read-out: Antiviral Activity IC50
pIC50: −log10 of the molar value.
Below, each entry is listed with its recorded pIC50.

# count of solved cases: 4
mol: CNC(=O)c1cccc(C(=O)NCc2ccc(F)cc2)c1O
result: < 4.00

mol: CNC(=O)c1ccc(C(=O)NCc2ccc(F)cc2)c(O)c1O
result: > 5.40

mol: O=C(NCc1ccc(F)cc1)c1ccc2cccnc2c1O
result: > 5.40

mol: O=C(NCc1ccc(F)cc1)c1cccc(C(=O)NCc2ccc(F)cc2)[n+]1[O-]
result: < 4.00

Request: Quick one: pIC50 of O=C(NCc1ccc(F)cc1)c1ccc2cccc(O)c2n1 ?
Result: < 4.00

====

In this section, each of the compounds is paired with its reported pIC50.
assayed.system: HIV-1 IN (Human immunodeficiency virus type 1 group M subtype B, UniProt P12497)
test.method.notes: HIV-1 IN 3′-processing (3P) gel-based catalytic assay
Assay type: biochemical
Parameters: made in house
pIC50: −log10 of the molar value.

compound: O=C(NCc1ccc(F)cc1)c1ccc2ccc[n+]([O-])c2c1O [RCD-14]
pIC50: 4.39

Request: Given Cc1nc(C(=O)NCc2ccc(F)cc2)c(O)c(=O)[nH]1 [RCD-1] , state its recorded pIC50.
Result: < 4.00

Request: # query: pIC50 of entry CNC(=O)c1cccc(C(=O)NCc2ccc(F)cc2)c1O [RCD-18]
Result: < 3.52

Request: I'd like to know its pIC50. The compound in question is O=C(NCc1ccc(F)cc1)c1cccc(C(=O)NCc2ccc(F)cc2)[n+]1[O-] [RCD-17]
Result: < 3.52

Request: Recorded pIC50 for CNC(=O)c1ccc(C(=O)NCc2ccc(F)cc2)c(O)c1O [RCD-10] , please?
Result: < 3.70

====

assayed.system: HIV-1 IN (Human immunodeficiency virus type 1 group M subtype B, UniProt P12497)
test.method.notes: HIV-1 IN 3′-processing (3P) gel-based catalytic assay
Assay type: biochemical
Set-up: made in house
setup.conditions: read-out: 3'-Processing IC50
pIC50: −log10 of the molar value.
measured.attribute: pIC50

The cases that follow already have their pIC50 on record.
molecule: O=C(NCc1ccc(F)cc1)c1cccc(O)c1O [RCD-8]
pIC50: < 4.00
//
molecule: COc1cccc(C(=O)NCc2ccc(F)cc2)c1O [RCD-9]
pIC50: < 4.00
//
molecule: O=C(NCc1ccc(F)cc1)c1ccccc1O [RCD-15, N-(4-Fluorobenzyl)-2-hydroxybenzamide]
pIC50: < 4.00
//
molecule: Cn1ccc(=O)c(O)c1C(=O)NCc1ccc(F)cc1 [RCD-2]
pIC50: < 4.00
//
molecule: O=C(O)c1cccc(C(=O)NCc2ccc(F)cc2)[n+]1[O-] [RCD-16]
pIC50: 4.67
//
molecule: Cc1occ(O)c(=O)c1C(=O)NCc1ccc(F)cc1
pIC50: < 4.00
//
molecule: Cc1cc(=O)c(O)c(C(=O)NCc2ccc(F)cc2)o1 [RCD-5]
pIC50: 4.23
//
molecule: Cc1cc(=O)c(O)c(C(=O)NCc2ccc(F)cc2)n1C [RCD-3]
pIC50: < 4.00

Request: Item O=C(NCc1ccc(F)cc1)c1cccc(C(=O)NCc2ccc(F)cc2)c1O [RCD-19] has what recorded pIC50?
Result: < 3.52

Request: So what does the record say about pIC50 for O=C(NCc1ccc(F)cc1)c1ccc(C(=O)NCc2ccc(F)cc2)c(O)c1O [RCD-11] ?
Result: < 3.52

====

assayed.system: HIV-1 IN (Human immunodeficiency virus type 1 group M subtype B)
test.method.notes: HIV-1 IN strand transfer (ST) gel-based catalytic assay
Type: biochemical
Set-up: made in house
setup.conditions: Strand Transfer IC50, 32P-end labeled oligonucleotides in solution, gel-based separation
# maps each entry to its IC50
Hi! Could you send only the number? It should be in µM, unit omitted.

Request: Which value of IC50 has been reported for O=C(O)c1cccc(C(=O)NCc2ccc(F)cc2)[n+]1[O-] in the records?
Result: 9.2

Request: Which IC50 value is on record for O=C(NCc1ccc(F)cc1)c1occc(=O)c1O ?
Result: 0.96

Request: State the recorded IC50 for this entry: Cc1occ(O)c(=O)c1C(=O)NCc1ccc(F)cc1
Result: 56
